Biological target: Glycogen synthase kinase-3 beta (Homo sapiens) (UniProt P49841)
Sequence (P49841 whole entry, looked up): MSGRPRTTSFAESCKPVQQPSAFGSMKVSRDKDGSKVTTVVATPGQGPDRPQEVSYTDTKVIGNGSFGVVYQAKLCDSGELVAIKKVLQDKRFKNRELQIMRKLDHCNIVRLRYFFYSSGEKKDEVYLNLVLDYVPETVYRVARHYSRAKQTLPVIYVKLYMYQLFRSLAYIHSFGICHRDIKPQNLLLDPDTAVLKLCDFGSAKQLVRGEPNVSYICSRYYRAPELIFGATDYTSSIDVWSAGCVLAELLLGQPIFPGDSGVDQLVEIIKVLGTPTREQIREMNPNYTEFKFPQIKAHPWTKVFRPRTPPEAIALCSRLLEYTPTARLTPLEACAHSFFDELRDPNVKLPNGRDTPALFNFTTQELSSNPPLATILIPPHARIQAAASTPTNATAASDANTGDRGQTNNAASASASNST
Conditions: Compound concentration 20.0 uM, Protein concentration 2.0 uM, Result type QC Liability
Description: Thermal Shift Assay. Domain: start/stop: M26-R383
Measured metric: ΔTm

Item CCc1nc(-c2cccc(C)c2)c(-c2ccncc2)s1 was tested on Glycogen synthase kinase-3 beta (Homo sapiens) (UniProt P49841); the reported ΔTm is 3.39 °C

Assay Glycogen synthase kinase-3 beta (Homo sapiens) (UniProt P49841), sample CCCCc1oc2ccccc2c1C(=O)c1cc(I)c(OCCN(CC)CC)c(I)c1 , ΔTm read: -0.84 °C

Tested on Glycogen synthase kinase-3 beta (Homo sapiens) (UniProt P49841): O=C(O)c1cc(-c2ccccc2)ccc1O . Observed ΔTm: -0.32 °C

Test item CC(=O)c1c(C)c2cnc(Nc3ccc(N4CCN(CCCCNC(=O)COc5cccc6c5C(=O)N(C5CCC(=O)NC5=O)C6=O)CC4)cn3)nc2n(C2CCCC2)c1=O (centres undefined) ; Glycogen synthase kinase-3 beta (Homo sapiens) (UniProt P49841); reported ΔTm was 0.7 °C

// assay Glycogen synthase kinase-3 beta (Homo sapiens) (UniProt P49841), entry Nc1nccc(-c2c(-c3ccc(F)cc3)ncn2C2CCCCC2)n1 , ΔTm value = 2.6 °C

Glycogen synthase kinase-3 beta (Homo sapiens) (UniProt P49841) ΔTm of COc1ccc(C(F)(F)F)cc1NC(=O)Nc1ccc(Oc2cc(C)nc(N)n2)c2ccccc12 is 1.99 °C

Considering C=CC(=O)Nc1cccc(C(=O)Nc2ccc(Nc3cc(-c4c(-c5ccc(F)cc5)nc(SC)n4C)ccn3)cc2)c1 , its ΔTm with Glycogen synthase kinase-3 beta (Homo sapiens) (UniProt P49841) was recorded as -0.32 °C

# value of ΔTm, Glycogen synthase kinase-3 beta (Homo sapiens) (UniProt P49841), item CN(C)C/C=C/C(=O)Nc1cc2c(Nc3ccc(F)c(Cl)c3)ncnc2cc1OC[C@@H]1CCCO1 = 2.63 °C

With Glycogen synthase kinase-3 beta (Homo sapiens) (UniProt P49841) as the test system, CCN(C(=O)c1cc(F)ccc1Oc1cncnc1N1CC2(CCN(C[C@H]3CC[C@H](NS(=O)(=O)CC)CC3)CC2)C1)C(C)C showed ΔTm of -0.47 °C

Value sought: ΔTm, system Glycogen synthase kinase-3 beta (Homo sapiens) (UniProt P49841), item O=C1Nc2ccc(C(=O)c3ccco3)cc2C1=Cc1cc(Cl)c(O)c(Cl)c1 . Result: 5.93 °C

The reported ΔTm value, Glycogen synthase kinase-3 beta (Homo sapiens) (UniProt P49841), for Cc1n[nH]c2ncc(C(=O)N3CCC[C@H]3c3ccc(Cl)cc3)cc12 reads 7.82 °C

Hey, Glycogen synthase kinase-3 beta (Homo sapiens) (UniProt P49841) data for Cn1nccc1-c1ccc(Sc2cccc(C3(C(N)=O)CCOCC3)c2)cc1 : ΔTm came out at -1.17 °C

Per the reported Glycogen synthase kinase-3 beta (Homo sapiens) (UniProt P49841) data, Cc1ccc2c(NS(=O)(=O)c3ccccc3Cl)cccc2c1Oc1ncccc1-c1ccnc(N[C@H]2CCCNC2)n1 has ΔTm of -0.76 °C

The reported ΔTm value, Glycogen synthase kinase-3 beta (Homo sapiens) (UniProt P49841), for NC(=O)c1ccc(-c2nc(-c3ccc4c(c3)OCCO4)c(-c3ccccn3)[nH]2)cc1 reads -0.91 °C

Record Cc1nc2ccc(Oc3ccc(F)cc3)cc2c(=O)n1C[C@H]1CCCN(C(C)C)C1 ; system Glycogen synthase kinase-3 beta (Homo sapiens) (UniProt P49841); ΔTm = -0.38 °C

CNS(=O)(=O)c1ccc(N(C)C)c(Nc2ncnc3cc(OC)c(OC)cc23)c1 tested on Glycogen synthase kinase-3 beta (Homo sapiens) (UniProt P49841) gave ΔTm: -0.61 °C

Note to self: ΔTm of CC(=O)Nc1nc(C)c(S(=O)(=O)Nc2ccc(C(O)(C(F)(F)F)C(F)(F)F)cc2)s1 with Glycogen synthase kinase-3 beta (Homo sapiens) (UniProt P49841) was 0.5 °C

Glycogen synthase kinase-3 beta (Homo sapiens) (UniProt P49841) ΔTm of N=C(N)NCCC[C@H](NC(=O)CC1(CC(=O)N2CCN(C(c3ccccc3)c3ccccc3)CC2)CCCC1)C(=O)NCc1ccccc1 is -1.84 °C

GET /values?item= CC1(C)C(=O)N([C@H]2CCc3c(O)cccc32)c2nc(Nc3cccc(CN4CCCC4)c3)ncc21 &system= Glycogen synthase kinase-3 beta (Homo sapiens) (UniProt P49841) returns ΔTm: 6.72 °C

----------
Field: ΔTm. Provide a value for each of the compounds that follow.
Biological target: Mitogen-activated protein kinase 1 (Homo sapiens) (UniProt P28482)
Sequence (P28482 whole entry): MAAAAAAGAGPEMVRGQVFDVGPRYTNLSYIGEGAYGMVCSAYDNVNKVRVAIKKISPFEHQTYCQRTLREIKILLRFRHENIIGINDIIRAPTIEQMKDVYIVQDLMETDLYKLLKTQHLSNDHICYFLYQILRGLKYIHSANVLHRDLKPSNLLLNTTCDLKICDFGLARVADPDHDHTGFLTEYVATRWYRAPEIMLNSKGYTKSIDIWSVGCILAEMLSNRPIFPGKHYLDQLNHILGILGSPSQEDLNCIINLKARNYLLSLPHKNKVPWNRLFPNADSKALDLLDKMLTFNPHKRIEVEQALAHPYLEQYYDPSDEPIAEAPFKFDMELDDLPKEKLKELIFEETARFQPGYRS
Details: Compound concentration 20.0 uM, Protein concentration 2.0 uM, Result type QC Liability
Description: Thermal Shift Assay. Domain: start/stop: M1-S360
The response must be a number in °C with no trailing unit.

The value of ΔTm measured for the compound Fc1ccc(-c2nc(-c3ccc4ccccc4c3F)[nH]c2-c2ccncc2)cc1 turned out to be 0.03

For Cc1nc2ccc(Cl)cc2c(-c2ccccc2)c1CC(=O)O the compound record lists ΔTm as 0.28

Documented ΔTm of CCc1cc2c(cc1N1CCC(N3CCOCC3)CC1)C(C)(C)c1[nH]c3cc(C#N)ccc3c1C2=O : 0.1

The value of ΔTm measured for the compound CC1(C)C(=O)N([C@H]2CCc3c(O)cccc32)c2nc(Nc3cccc(CN4CCCC4)c3)ncc21 turned out to be 5.19

Looking up COc1cc(C(=O)NC2CCN(C)CC2)ccc1Nc1ncc(C(F)(F)F)c(NCc2ccc(C)cc2N(C)S(C)(=O)=O)n1 , I see its ΔTm listed as 3.52

The recorded ΔTm for entry Nc1ncnc2c1c(COc1cccc(Cl)c1)nn2C1CCOCC1 equals 0.21

Value of measured ΔTm for the entry CN(C(=O)c1ccccc1)c1ccc2c(c1)[nH]/c(=N\C(=O)c1ccc(Br)s1)n2CCC(N)=O : 0.41

The reported ΔTm of the compound O=C1NC(=NCc2cccs2)SC1=Cc1ccc2ncccc2c1 was 0.66

// ΔTm lookup, compound = CCCCCCCC/C=C\CCCCCCCC(=O)NCCO , result: -1.79

The measured ΔTm associated with Clc1ccc(-c2nc3sccn3c2/C=N/OCc2ccc(Cl)c(Cl)c2)cc1 reads -0.15

// sample CC1CCN(C(=O)[C@@H](CCn2cccc2C#N)NS(=O)(=O)c2cccc3[nH]ccc23)CC1 , its ΔTm was -8.81

Summary for this compound, O=C(N[C@H](Cc1ccccc1)C(=O)O)c1cccc(OCc2cccnc2)c1 : ΔTm is 0.21

Documented ΔTm of COc1cccc(-c2c(C)c(Cc3c(F)cccc3C(F)(F)F)c3n(c2=O)[C@@H]([C@@H](N)c2ccccc2)CS3)c1F : -2.02

Reported ΔTm of FC(F)(F)c1ccc(CNc2ccc(Cc3c[nH]c4ncc(Cl)cc34)cn2)cn1 : 0.93

Field ΔTm (entry CN(C1CCc2c(c3ccccc3n2CC(=O)O)C1)S(=O)(=O)c1ccc(F)cc1 (stereo not given) ) reads -0.11

Noted for N[C@@H]1CCCN(c2c(/C=C3\SC(=O)NC3=O)cccc2-c2ccccc2)C1 : its ΔTm reads 0.64

Form: compound = N#CC[C@H](C1CCCC1)n1cc(-c2ncnc3[nH]ccc23)cn1 ; ΔTm = 0.74

Reported ΔTm of CCN(C(=O)CO)[C@H]1CN(/C(=N\C#N)Nc2cccc(OC(F)F)c2)N=C1c1ccc(Cl)c(Cl)c1 : -0.24

# ΔTm (compound: COc1cc(-c2cc([C@H](O)C3CC3)n3ncnc(N)c23)ccc1CO ) is 0.82

Reported ΔTm of NC1(c2ccc(-c3nc4c(O)ccnn4c3-c3ccccc3)cc2)CCC1 : 0.46

----------
Target: Aurora kinase A (Homo sapiens) (UniProt O14965)
Sequence (O14965 whole entry): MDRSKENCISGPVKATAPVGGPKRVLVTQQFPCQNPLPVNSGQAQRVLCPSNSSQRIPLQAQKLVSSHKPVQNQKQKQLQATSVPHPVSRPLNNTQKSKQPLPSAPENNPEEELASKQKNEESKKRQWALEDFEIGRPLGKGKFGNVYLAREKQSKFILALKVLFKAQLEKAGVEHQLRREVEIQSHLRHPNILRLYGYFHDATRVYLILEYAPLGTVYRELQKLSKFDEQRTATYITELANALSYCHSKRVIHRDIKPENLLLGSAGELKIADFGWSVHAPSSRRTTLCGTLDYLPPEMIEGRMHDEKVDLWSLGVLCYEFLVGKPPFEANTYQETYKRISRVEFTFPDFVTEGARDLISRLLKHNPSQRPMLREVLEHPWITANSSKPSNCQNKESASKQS
Conditions: Compound concentration 20.0 uM, Protein concentration 2.0 uM, Result type QC Liability
Description: Thermal Shift Assay. Domain: start/stop: E122-S403
Measured metric: ΔTm (°C)
# unit: °C | format: bare number

Just so you know, measured ΔTm for CCN1CCN(Cc2ccc(C(=O)Nc3ccc(C)c(Oc4ccc5c(c4)CC(=O)N5)c3)cc2C(F)(F)F)CC1 came out at -1.25

For O=C(O)CCCc1cc2cc(Cl)ccc2n1S(=O)(=O)c1ccc2ncsc2c1 the compound record lists ΔTm as -0.83

Query CN(C)C/C=C/C(=O)Nc1cc2c(Nc3ccc(F)c(Cl)c3)ncnc2cc1OC[C@@H]1CCCO1 yields ΔTm of 1.39

ΔTm for Cc1cc(S(=O)(=O)N2CC(C)(C)c3cc(-c4ccc(C(F)(F)F)cc4)ccc32)ccc1OCC(=O)O is -1.56

Value of measured ΔTm for the entry CCNc1ccc(-c2nn(-c3ccccc3C)c3c2C(C)Cc2nc(NC(=O)OC)sc2-3)cn1 (stereo not drawn) : 1.08

Value of measured ΔTm for the entry CNC(=O)c1ccc2c(c1)NC(=O)/C2=C(\Nc1ccc(CN2CCCCC2)cc1)c1ccccc1 : 3.8

GET /value?item= CN(C)[C@H]1CCN(c2cc(C(F)(F)F)c(C#N)c(Nc3cccc(CCC(=O)O)c3)n2)C1 &field=ΔTm returns 0.51

ΔTm reported for this compound Cc1sc(C(=O)c2cncnc2N[C@@H]2C[C@H](COS(N)(=O)=O)[C@@H](O)C2)cc1[C@@H]1NCCc2ccc(Cl)cc21 : -0.27

Measured values drawn from ChEMBL document CHEMBL5308504 for this set.
